Reference source for all entries: patent US20210299260A1

Consider the following compounds; for each one, report its half-life.
Assay: physchem
Type: physicochemical
Settings: buffer, pH 4.6
// return numeric value only (unit: h, not printed)

(Q) Give half-life for the following compound: CN(C)/N=N/c1ccc(C[C@H]2C(=O)N(C)[C@@H](Cc3ccc(/N=N/N(C)C)cc3)C(=O)N2C)cc1 [Compound 1]
(A) 4.8

(Q) Give the reported half-life for this compound. CN(C)/N=N/c1[nH]cnc1C(N)=O [DTIC, dacarbazine, reference compound]
(A) 5.1

----------
Experiment: physchem
Assay type: physicochemical
Details: buffer, pH 7.4
measurementLabel: half-life
Provide the measurement as a number trailed by its unit.

(Q) Identify half-life associated with the compound CN(C)/N=N/c1[nH]cnc1C(N)=O [DTIC, dacarbazine, reference compound]
(A) 10.2 h
